Recorded tissue uptake at 1 h for the following compounds
assay_comment: in vivo
assay_context: swiss nude, mouse, kidneys, iv
Numbered stars: 1 amine (or outer) side, 2 acyl side, 3 side chain; on linkers, the order of the positions; unused ones are H or OH. Bridge positions count the residues as written; N and C are the ends. Square brackets hold non-standard residues; d marks the D form. Peptide text beside a SMILES is read from it. * marks the point of attachment. ξ: configuration not given here. X1 = NCCNCC(CNCCN)C(=O)N1CCN(CC(=O)NCCCOCCOCCOCCCN*)CC1; Pyridine(3,5-bisCH2) = c1ncc(C[*:2])cc1C[*:1]; mXylylene = c1cc(C[*:1])cc(C[*:2])c1; PEG6 = NCCOCCOCCOCCOCCOCCOCCC(=O)O; Suc = O=C(CCC(=O)[*:2])[*:1]; Nle = CCCC[C@H](N)C(=O)O; X2 = NCCNCC(CNCCN)C(=O)*; ξC = NC(CS)C(=O)O; βAla = NCCC(=O)O

| compound | measurement_unit | tissue uptake at 1 h |
| --- | --- | --- |
| CCCC[C@H](NC(=O)CCC(=O)NCCCOCCOCCOCCCNC(=O)CN1CCN(C(=O)C(CNCCN)CNCCN)CC1)C(=O)N[C@H]1CSCc2cccc(c2)CSC[C@@H](C(=O)NCCC(=O)O)NC(=O)[C@H](Cc2ccccc2)NC(=O)[C@H](CCC(=O)O)NC(=O)[C@H]([C@@H](C)O)NC(=O)[C@@H]2CCCN2C(=O)[C@@H]2CCCN2C1=O [3BP-4784] ({X1-Suc}-[Nle]CPPTEFC[βAla]-OH; linker 2-8 via mXylylene) | %ID/g | 1.61 |
| CCCC[C@H](NC(=O)CCOCCOCCOCCOCCOCCOCCNC(=O)C(CNCCN)CNCCN)C(=O)N[C@H]1CSCc2cncc(c2)CSCC(C(=O)O)NC(=O)[C@H](Cc2ccccc2)NC(=O)[C@H](CCC(=O)O)NC(=O)[C@H]([C@@H](C)O)NC(=O)[C@@H]2CCCN2C(=O)[C@@H]2CCCN2C1=O (stereo partly drawn) [3BP-4773] ({X2-PEG6}-[Nle]CPPTEF[ξC]-OH; linker 2-8 via Pyridine(3,5-bisCH2)) | %ID/g | 6.64 |
| CCCC[C@H](NC(=O)CCC(=O)NCCCOCCOCCOCCCNC(=O)CN1CCN(C(=O)C(CNCCN)CNCCN)CC1)C(=O)N[C@H]1CSCc2cccc(c2)CSC[C@@H](C(=O)N[C@@H](CC(=O)O)C(=O)O)NC(=O)[C@H](Cc2ccccc2)NC(=O)[C@H](CCC(=O)O)NC(=O)[C@H]([C@@H](C)O)NC(=O)[C@@H]2CCCN2C(=O)[C@@H]2CCCN2C1=O [3BP-4785] ({X1-Suc}-[Nle]CPPTEFCD-OH; linker 2-8 via mXylylene) | %ID/g | 3.47 |

* * *

assay_comment: in vivo
assay_context: swiss nude, mouse, tumor, iv
Numbered stars: 1 amine (or outer) side, 2 acyl side, 3 side chain; on linkers, the order of the positions; unused ones are H or OH. Bridge positions count the residues as written; N and C are the ends. Square brackets hold non-standard residues; d marks the D form. Peptide text beside a SMILES is read from it. * marks the point of attachment. ξ: configuration not given here. X1 = NCCNCC(CNCCN)C(=O)N1CCN(CC(=O)NCCCOCCOCCOCCCN*)CC1; Pyridine(3,5-bisCH2) = c1ncc(C[*:2])cc1C[*:1]; mXylylene = c1cc(C[*:1])cc(C[*:2])c1; PEG6 = NCCOCCOCCOCCOCCOCCOCCC(=O)O; Suc = O=C(CCC(=O)[*:2])[*:1]; Nle = CCCC[C@H](N)C(=O)O; X2 = NCCNCC(CNCCN)C(=O)*; ξC = NC(CS)C(=O)O
metric_name: tissue uptake at 6 h (%ID/g)

| compound | measurement_unit | result_value |
| --- | --- | --- |
| CCCC[C@H](NC(=O)CCC(=O)NCCCOCCOCCOCCCNC(=O)CN1CCN(C(=O)C(CNCCN)CNCCN)CC1)C(=O)N[C@H]1CSCc2cncc(c2)CSC[C@@H](C(=O)NCCC(=O)O)NC(=O)[C@H](Cc2ccccc2)NC(=O)[C@H](CCC(N)=O)NC(=O)[C@H]([C@@H](C)O)NC(=O)[C@@H]2CCCN2C(=O)[C@@H]2CCCN2C1=O | %ID/g | 12.3 |
| CCCC[C@H](NC(=O)CCC(=O)NCCCOCCOCCOCCCNC(=O)CN1CCN(C(=O)C(CNCCN)CNCCN)CC1)C(=O)N[C@H]1CSCc2cncc(c2)CSCC(C(=O)O)NC(=O)[C@H](Cc2ccccc2)NC(=O)[C@H](CCC(=O)O)NC(=O)[C@H]([C@@H](C)O)NC(=O)[C@@H]2CCCN2C(=O)[C@@H]2CCCN2C1=O (stereo partly drawn) [3BP-4775] ({X1-Suc}-[Nle]CPPTEF[ξC]-OH; linker 2-8 via Pyridine(3,5-bisCH2)) | %ID/g | 4.55 |
| CCCC[C@H](NC(=O)CCOCCOCCOCCOCCOCCOCCNC(=O)C(CNCCN)CNCCN)C(=O)N[C@H]1CSCc2cncc(c2)CSCC(C(=O)O)NC(=O)[C@H](Cc2ccccc2)NC(=O)[C@H](CCC(N)=O)NC(=O)[C@H]([C@@H](C)O)NC(=O)[C@@H]2CCCN2C(=O)[C@@H]2CCCN2C1=O (stereo partly drawn) | %ID/g | 2.91 |
| CCCC[C@H](NC(=O)CCOCCOCCOCCOCCOCCOCCNC(=O)C(CNCCN)CNCCN)C(=O)N[C@H]1CSCc2cncc(c2)CSCC(C(=O)O)NC(=O)[C@H](Cc2ccccc2)NC(=O)[C@H](CCC(=O)O)NC(=O)[C@H]([C@@H](C)O)NC(=O)[C@@H]2CCCN2C(=O)[C@@H]2CCCN2C1=O (stereo partly drawn) [3BP-4773] ({X2-PEG6}-[Nle]CPPTEF[ξC]-OH; linker 2-8 via Pyridine(3,5-bisCH2)) | %ID/g | 5.42 |
| CCCC[C@H](NC(=O)CCC(=O)NCCCOCCOCCOCCCNC(=O)CN1CCN(C(=O)C(CNCCN)CNCCN)CC1)C(=O)N[C@H]1CSCc2cccc(c2)CSC[C@@H](C(=O)N[C@@H](CC(=O)O)C(=O)O)NC(=O)[C@H](Cc2ccccc2)NC(=O)[C@H](CCC(=O)O)NC(=O)[C@H]([C@@H](C)O)NC(=O)[C@@H]2CCCN2C(=O)[C@@H]2CCCN2C1=O [3BP-4785] ({X1-Suc}-[Nle]CPPTEFCD-OH; linker 2-8 via mXylylene) | %ID/g | 4.32 |
| CCCC[C@H](NC(=O)CCC(=O)NCCCOCCOCCOCCCNC(=O)C(CNCCN)CNCCN)C(=O)N[C@H]1CSCc2cncc(c2)CSCC(C(=O)O)NC(=O)[C@H](Cc2ccccc2)NC(=O)[C@H](CCC(N)=O)NC(=O)[C@H]([C@@H](C)O)NC(=O)[C@@H]2CCCN2C(=O)[C@@H]2CCCN2C1=O (stereo partly drawn) | %ID/g | 1.68 |

* * *

assay_comment: Pharmacokinetic study in mice (plasma, NCA)
assay_context: mouse, intravenous, 400 nmol/kg, Vz, mouse plasma
metric_name: Vd (L/kg)

| compound | measurement_unit | result_value |
| --- | --- | --- |
| CCCCCC(=O)N[C@H]1CSCc2cc(CSCCNC(=O)CN3CCN(CC(=O)O)CCN(CC(=O)O)CCN(CC(=O)O)CC3)cc(c2)CSC[C@@H](C(=O)O)NC(=O)[C@H](Cc2ccccc2)NC(=O)[C@H](CCC(N)=O)NC(=O)[C@H]([C@@H](C)O)NC(=O)[C@@H]2CCCN2C(=O)[C@@H]2CCCN2C1=O [3BP-3623] | L/kg | 0.64 |

* * *

Recorded IC50 for the following compounds
target_system: Human recombinant FAP (Homo sapiens, UniProt Q12884)
Sequence (Q12884 whole entry): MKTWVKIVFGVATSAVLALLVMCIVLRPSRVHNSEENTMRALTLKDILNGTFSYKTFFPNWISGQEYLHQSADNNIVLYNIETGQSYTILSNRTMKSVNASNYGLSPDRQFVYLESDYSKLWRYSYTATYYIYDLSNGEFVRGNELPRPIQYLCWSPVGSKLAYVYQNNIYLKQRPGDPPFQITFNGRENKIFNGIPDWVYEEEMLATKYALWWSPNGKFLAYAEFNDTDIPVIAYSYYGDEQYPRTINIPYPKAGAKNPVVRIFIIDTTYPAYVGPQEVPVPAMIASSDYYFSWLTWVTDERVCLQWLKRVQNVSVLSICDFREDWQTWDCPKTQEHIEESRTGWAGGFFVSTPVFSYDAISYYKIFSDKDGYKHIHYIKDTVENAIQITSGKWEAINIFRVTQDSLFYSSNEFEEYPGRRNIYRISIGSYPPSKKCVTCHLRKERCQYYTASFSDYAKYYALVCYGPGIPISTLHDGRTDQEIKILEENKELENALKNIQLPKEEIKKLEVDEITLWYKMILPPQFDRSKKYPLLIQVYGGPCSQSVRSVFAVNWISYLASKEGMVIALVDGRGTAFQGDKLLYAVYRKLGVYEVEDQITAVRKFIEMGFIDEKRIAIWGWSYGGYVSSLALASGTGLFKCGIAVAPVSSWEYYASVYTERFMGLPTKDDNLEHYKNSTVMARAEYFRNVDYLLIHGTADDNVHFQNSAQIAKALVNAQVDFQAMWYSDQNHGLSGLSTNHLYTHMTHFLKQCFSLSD
assay_comment: FRET-based FAP protease activity assay
Assay type: biochemical
Design: purchased R&D systems 3715-SE
assay_context: pIC50 Category (Activity), FRET-peptide substrate, 37° C.

| compound | IC50 |
| --- | --- |
| CCCCCC(=O)N[C@H]1CSCc2cc(CSCCNC(=O)CCCC(=O)Nc3ccc(C[C@@H](CN(CCN(CC(=O)O)CC(=O)O)CC(=O)O)N(CC(=O)O)CC(=O)O)cc3)cc(c2)CSC[C@@H](C(=O)O)NC(=O)[C@H](Cc2ccccc2)NC(=O)[C@H](CCC(N)=O)NC(=O)[C@H]([C@@H](C)O)NC(=O)[C@@H]2CCCN2C(=O)[C@@H]2CCCN2C1=O [3BP-4366] | 100 to 794 nM |
| C[C@@H](O)[C@@H]1NC(=O)[C@@H]2CCCN2C(=O)[C@@H]2CCCN2C(=O)[C@@H](NC(=O)NC2CCCC2)CSCc2cc(CSCCNC(=O)CN3CCN(CC(=O)O)CCN(CC(=O)O)CCN(CC(=O)O)CC3)cc(c2)CSC[C@@H](C(=O)O)NC(=O)[C@H](Cc2ccccc2)NC(=O)[C@H](CCC(N)=O)NC1=O [3BP-3917] | 10 to 79.4 nM |
| CCCC[C@H](NC(=O)CCC(=O)NCCCOCCOCCOCCCNC(=O)[C@H](CCC(=O)NC[C@H](O)[C@@H](O)[C@H](O)[C@H](O)CO)NC(=O)[C@H](CCC(=O)NC[C@H](O)[C@@H](O)[C@H](O)[C@H](O)CO)NC(=O)C(CNCCN)CNCCN)C(=O)N[C@H]1CSCc2cccc(c2)CSC[C@@H](C(=O)O)NC(=O)[C@H](Cc2ccccc2)NC(=O)[C@H](CCC(N)=O)NC(=O)[C@H]([C@@H](C)O)NC(=O)[C@@H]2CCCN2C(=O)[C@@H]2CCCN2C1=O [3BP-4265] | 10 to 79.4 nM |
| CCCCNC(=O)N[C@H]1CSCc2cccc(c2)CSC[C@@H](C(=O)N[C@@H](CCCCNC(=O)C(CNCCN)CNCCN)CC(=O)O)NC(=O)[C@H](Cc2ccccc2)NC(=O)[C@H](CCC(N)=O)NC(=O)[C@H]([C@@H](C)O)NC(=O)[C@@H]2CCCN2C(=O)[C@@H]2CCCN2C1=O [3BP-4589] | < 10 nM |
| C=CCCC(=O)N[C@H]1CSCc2cc(CSCCNC(=O)CN3CCN(CC(=O)O)CCN(CC(=O)O)CCN(CC(=O)O)CC3)cc(c2)CSC[C@@H](C(=O)O)NC(=O)[C@H](Cc2ccccc2)NC(=O)[C@H](CCC(N)=O)NC(=O)[C@H]([C@@H](C)O)NC(=O)[C@@H]2CCCN2C(=O)[C@@H]2CCCN2C1=O [3BP-3914] | 10 to 79.4 nM |
| CCCCCC(=O)N[C@H]1CSCc2cc(CSCCNC(=O)CCOCCOCCOCCOCCOCCOCCNC(=O)CCc3ccc(O)c(CN(CCN(CC(=O)O)Cc4cc(CCC(=O)O)ccc4O)CC(=O)O)c3)cc(c2)CSC[C@@H](C(=O)O)NC(=O)[C@H](Cc2ccccc2)NC(=O)[C@H](CCC(N)=O)NC(=O)[C@H]([C@@H](C)O)NC(=O)[C@@H]2CCCN2C(=O)[C@@H]2CCCN2C1=O [3BP-4383] | 10 to 79.4 nM |

# credit: patent US20230212549A1
